All figures here come from patent US4045567A.

- PROCEDURE SUMMARY: in vivo
- CONDITION INFO: mouse, mice, oral, observed one week, read-out: average lethal dose (LD50), Oral Route
QUANTITY MEASURED: LD50 at 168 h

CCc1ncc(C(=O)O)s1 | > 2000 mg/kg
CCCc1ncc(C(=O)O)s1 | > 2000 mg/kg
